Test system: Plasmodium berghei
Measurement description: Screen against P. berghei liver stage (PbLuc), transformed with Luciferase, at 2uM
Format: functional, HepG2
Protocol conditions: tested at 2 uM
Screen size: about 68,000 compounds; about 2,700 (4%) showed an effect of 50% or more. The list comes from a sample in which strong results are over-represented; it also holds close analogues and randomly drawn compounds.
Measured parameter: INHIBITION (%)
Report the figure in % without appending any unit label.

Cc1nnc(NC(=O)NCCN(C(=O)OC(C)(C)C)C2CC2)s1 = -25.33
CCc1nnc(NC(=O)NCCN(C)C(=O)OC(C)(C)C)s1 = -23.06
Cn1cc(C(=O)CC2CCCN2C(=O)c2ccc(Cl)cn2)cn1 (stereo unspecified) = 24.55
CCc1ccccc1C(=O)N1CCCC1CC(=O)c1cnn(C)c1 (stereo unspecified) = -7.41
Cn1cc(C(=O)CC2CCCN2C(=O)c2cncc3ccccc23)cn1 (stereo unspecified) = 11.1

Ask: Provide INHIBITION value for the following molecule: Cn1cc(C(=O)CC2CCCN2C(=O)c2cccc3ncccc23)cn1 (stereo unspecified)
Result: 51.19
